Target: Human Kv1.5 channels (Homo sapiens)
Sequence (P22460 whole entry): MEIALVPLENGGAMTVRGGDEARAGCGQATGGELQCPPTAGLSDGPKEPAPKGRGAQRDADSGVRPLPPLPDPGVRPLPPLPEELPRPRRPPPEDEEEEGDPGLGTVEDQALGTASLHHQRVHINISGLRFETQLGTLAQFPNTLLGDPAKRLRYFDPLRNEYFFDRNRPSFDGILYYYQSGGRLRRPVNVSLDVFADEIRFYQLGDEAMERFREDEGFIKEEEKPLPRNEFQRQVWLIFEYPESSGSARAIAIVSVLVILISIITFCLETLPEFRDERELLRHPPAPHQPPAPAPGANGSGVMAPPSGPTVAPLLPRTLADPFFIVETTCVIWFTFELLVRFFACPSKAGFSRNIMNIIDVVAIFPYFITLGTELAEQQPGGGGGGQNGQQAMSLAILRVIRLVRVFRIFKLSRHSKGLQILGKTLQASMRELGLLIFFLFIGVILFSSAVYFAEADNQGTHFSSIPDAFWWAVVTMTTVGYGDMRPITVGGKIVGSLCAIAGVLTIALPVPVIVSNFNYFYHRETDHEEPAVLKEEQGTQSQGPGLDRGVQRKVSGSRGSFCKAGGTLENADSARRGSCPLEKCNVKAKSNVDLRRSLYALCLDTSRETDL
Experiment: Kv1.5 currents in Xenopus oocytes, two-microelectrode voltage clamp
Settings: human Kv1.5 expressed in Xenopus laevis oocytes; 500 ms voltage jumps to 0 mV and 40 mV; room temperature; percentage inhibition of control current fitted with Hill equation
Property: IC50; scope: individual compounds

smiles_data: COc1ccc(NS(=O)(=O)c2cccc(C(F)(F)F)c2)c(C(=O)NCCc2cccs2)c1
IC50: 3 µM
--
smiles_data: COc1ccc(S(=O)(=O)Nc2cc(F)ccc2C(=O)N(C)Cc2ccccc2)cc1
IC50: 4.1 µM
--
smiles_data: COc1ccc(NS(=O)(=O)c2ccc(C)cc2)c(C(=O)NCCc2cccs2)c1
IC50: 2.6 µM
--
smiles_data: CCCCS(=O)(=O)Nc1ccc(C)cc1C(=O)NCc1ccc(Cl)cc1
IC50: 6.1 µM
--
smiles_data: COc1ccc(S(=O)(=O)Nc2ccc(OC)cc2C(=O)N(C)Cc2ccccc2)cc1
IC50: 4.5 µM

State its IC50 on Human Kv1.5 channels (Homo sapiens): Cc1ccc(S(=O)(=O)Nc2ccc(F)cc2C(=O)NCc2ccccc2)cc1 3.6 µM

State its IC50 on Human Kv1.5 channels (Homo sapiens): O=C(NCc1ccccc1)c1cc(Cl)ccc1NS(=O)(=O)c1ccc(Cl)cc1 6 µM

State its IC50 on Human Kv1.5 channels (Homo sapiens): CCN(Cc1ccccc1)C(=O)c1ccccc1NS(=O)(=O)c1ccc(C)cc1 5 µM

State its IC50 on Human Kv1.5 channels (Homo sapiens): CCN(C(=O)c1ccccc1NS(=O)(=O)c1cccc2ccccc12)c1ccccc1 1.9 µM

State its IC50 on Human Kv1.5 channels (Homo sapiens): Cc1cccc(NS(=O)(=O)c2ccc(Cl)cc2)c1C(=O)NCc1ccc(Cl)cc1 2.4 µM

State its IC50 on Human Kv1.5 channels (Homo sapiens): CN(Cc1ccccc1)C(=O)c1ccccc1NS(=O)(=O)c1cccc2cccnc12 4.6 µM
